Reported INHIBITION values are given for each entry in this list.
Tested on: Plasmodium berghei
Protocol text: Screen against P. berghei liver stage (PbLuc), transformed with Luciferase, at 2uM
Assay type: functional, HepG2
Conditions used: tested at 2 uM
Among all 68,000 compounds or so, about 2,700 (4%) showed an effect of 50% or more. Many of the other results were omitted from the sample, so strong results are more common in it than they were.
Write it as a number; the unit % goes unstated.

Molecule | System tested | Test result
CNS(=O)(=O)c1ccc(C(=O)NCCc2ccccn2)cc1 | Plasmodium berghei | 62.46
Cc1ccc(C)c(OCC(=O)NC2CCN(c3ccccn3)CC2)c1 | Plasmodium berghei | 63.89
Cc1cc(-c2ccc(C(C)N3CCOCC3)cc2)cnc1N (centres undefined) | Plasmodium berghei | -38.09
O=C(c1nc2c(o1)CN(CC1CCC1)C2)N1CCCC1 | Plasmodium berghei | 12.68

Problem: Find the recorded INHIBITION belonging to Cc1nc(-c2ccsc2)ccc1C(=O)NCCN1CCOCC1 and report it.
Result: 13

Problem: Find the recorded INHIBITION belonging to O=C(C1CC1)N1CCN2C[C@@H](CO)[C@H](c3ccccc3)[C@H]2C1 and report it.
Result: 14.45

Problem: Find the recorded INHIBITION belonging to COC1CCN(C(=O)CC2CCCC2)CC(=O)N(C)c2ccccc21 (centres undefined) and report it.
Result: 8.41

Problem: Find the recorded INHIBITION belonging to CO[C@H]1CCN(Cc2ccccn2)[C@@H]2CN(Cc3ccco3)C[C@H]12 and report it.
Result: 23.7

Problem: Find the recorded INHIBITION belonging to CCS(=O)(=O)N(C)C1CCN(C(=O)c2cc(C)cc(C)c2)CC1 and report it.
Result: -37.02

Problem: Find the recorded INHIBITION belonging to CCOc1ccc(CNCC(O)c2ccccc2)cc1Cl (centres undefined) and report it.
Result: 38.61

Problem: Find the recorded INHIBITION belonging to COC1CCN(C(=O)CC(C)(C)C)CC(=O)N(C)c2ccccc21 (centres undefined) and report it.
Result: 51.71

Problem: Find the recorded INHIBITION belonging to CC(C1CC1)N(C(=O)NCCCn1nc2ccccn2c1=O)C1CC1 (centres undefined) and report it.
Result: 1.07

Problem: Find the recorded INHIBITION belonging to Cc1ccc(-c2noc(CN3CCC(N4CCNC4=O)CC3)n2)cc1 and report it.
Result: 9.17

Problem: Find the recorded INHIBITION belonging to Cc1nc2cc(C(=O)N3C[C@@H](NS(C)(=O)=O)[C@H](C(C)C)C3)ccc2[nH]1 and report it.
Result: -1.71

###

Reported INHIBITION values are given for each entry in this list.
System: Plasmodium berghei
Protocol text: Screen against P. berghei liver stage (PbLuc), transformed with Luciferase, at 2uM
Assay type: functional, HepG2
Conditions used: tested at 2 uM
Out of some 68,000 compounds screened, about 2,700 (4%) showed an effect of 50% or more. This excerpt belongs to a sample that is enriched for strong results.
Write it as a number; the unit % goes unstated.

Compound | Unit tag | INHIBITION
COCCN(C)Cc1cc(Cl)ccc1OCC(O)CN1CCCCCC1 (centres undefined) | % | -55.56
O=C(CS(=O)(=O)Cc1cc(Cl)c2c(c1)OCCCO2)NCC1CC1 | % | 2.77
Cc1noc(C)c1CN(C)Cn1c(=O)oc2ccccc21 | % | -5.31
Cc1csc2c(=O)n(CCN3CCNCC3)cnc12 | % | 23.68
CCOCc1nnc(NCc2cccnc2)o1 | % | 54.29

Problem: Find the recorded INHIBITION belonging to Cn1cc(C(=O)NCc2ccc(OC3CCCCC3)nc2)ccc1=O and report it.
Result: 2.66

Problem: Find the recorded INHIBITION belonging to CCN(CCNC(=O)C1CCN(C(C)=O)CC1)c1ccccc1C and report it.
Result: 31.13

Problem: Find the recorded INHIBITION belonging to O=C(c1ccsc1)N1CCO[C@@H]2CN(Cc3nccs3)C[C@@H]2C1 and report it.
Result: 41.28

Problem: Find the recorded INHIBITION belonging to O=c1c2cccc(F)c2ncn1CCN1CCNCC1 and report it.
Result: 65.76

Problem: Find the recorded INHIBITION belonging to CCc1ccc(CC)c(NCc2cnc(N3CCOCC3)nc2)c1 and report it.
Result: -64.63

Problem: Find the recorded INHIBITION belonging to CC(C)N1CCO[C@H]2CN(C(=O)c3ccsc3)C[C@H]21 and report it.
Result: 65.32

Problem: Find the recorded INHIBITION belonging to O=C(c1ccsc1)N1CCO[C@@H]2CN(Cc3cccs3)C[C@@H]2C1 and report it.
Result: 78.93

Problem: Find the recorded INHIBITION belonging to CC(C)N1CCO[C@H]2CN(C(=O)c3ccoc3)C[C@H]21 and report it.
Result: -17.23

Problem: Find the recorded INHIBITION belonging to CN1CCc2ncc(CNc3cc(N(C)C)ncn3)n2CC1 and report it.
Result: -14.45

Problem: Find the recorded INHIBITION belonging to CC1CCN(CCNCc2cc(-c3ccccc3)cn3nnnc23)CC1 and report it.
Result: 26.56

Problem: Find the recorded INHIBITION belonging to COc1cccc2c(=O)n(Cc3cccnc3)cnc12 and report it.
Result: -66.95

Problem: Find the recorded INHIBITION belonging to OC1(CNc2cccc(F)c2)CCNCC1 and report it.
Result: -14.66

Problem: Find the recorded INHIBITION belonging to O[C@H]1CN(CCOc2ccc(F)cc2)CC[C@@]12CCCO2 and report it.
Result: 9.05

Problem: Find the recorded INHIBITION belonging to Cc1nn(C)cc1C1=NS(=O)(=O)N(C)C(C(=O)Nc2ccc(Br)cc2)=C1 and report it.
Result: 22.84
